The values you see were collected from ChEMBL document CHEMBL1147590.

Tested on: P388
Assay: In vitro rate of inhibition of P388 tumor cell growth at 10E-4 mol/L
Format: functional, Mus musculus
Details: at 100 µM

- molecule: "COC(=O)N1N=C(C)N=NC1C (stereo not drawn)"
  test-target: "P388"
  Rate of inhibition [%]: 60.5
- molecule: "CCCC1=NN(C(=O)Nc2ccccc2)C(CCC)=NN1C(=O)Nc1ccccc1"
  test-target: "P388"
  Rate of inhibition [%]: 85.4
- molecule: "CC1=NN(C(=O)Nc2cccc(N(C)C)c2)C(C)=NN1C(=O)Nc1cccc(N(C)C)c1"
  test-target: "P388"
  Rate of inhibition [%]: 95.4
- molecule: "COc1cc(NC(=O)N2N=C(C)N(C(=O)Nc3cc(OC)cc(OC)c3)N=C2C)cc(OC)c1"
  test-target: "P388"
  Rate of inhibition [%]: 94.4
- molecule: "CC1=NN(C(=O)OCCC(C)C)C(C)N=N1 (stereo not drawn)"
  test-target: "P388"
  Rate of inhibition [%]: 28.8
- molecule: "CC(=O)N1NC(C)N(C(C)=O)NC1C (stereo not drawn)"
  test-target: "P388"
  Rate of inhibition [%]: 14.5
- molecule: "CC(=O)N1N=C(c2ccccc2)NN=C1c1ccccc1"
  test-target: "P388"
  Rate of inhibition [%]: 62.7
- molecule: "FC(F)(F)c1ccc(-c2nnc(-c3ccc(C(F)(F)F)cc3)nn2)cc1"
  test-target: "P388"
  Rate of inhibition [%]: 51.5
- molecule: "Clc1ccc(Cc2nnc(Cc3ccc(Cl)cc3)nn2)cc1"
  test-target: "P388"
  Rate of inhibition [%]: 58.4
- molecule: "CC1=NN(C(=O)OCc2ccccc2)C(C)N=N1 (stereo not drawn)"
  test-target: "P388"
  Rate of inhibition [%]: 24.1
- molecule: "Cc1ccc(-c2nnc(-c3ccc(C)cc3)nn2)cc1"
  test-target: "P388"
  Rate of inhibition [%]: 56.4
- molecule: "CC(C)C(=O)N1N=C(c2ccccc2)NN=C1c1ccccc1"
  test-target: "P388"
  Rate of inhibition [%]: 82.5
- molecule: "c1ccc(Cc2nnc(Cc3ccccc3)nn2)cc1"
  test-target: "P388"
  Rate of inhibition [%]: 51
- molecule: "CCOC(=O)N1C(c2ccccc2)=NN=C(c2ccccc2)N1C(=O)OCC"
  test-target: "P388"
  Rate of inhibition [%]: 93.9
- molecule: "CCOC(=O)c1cccc(NC(=O)N2N=C(C)N(C(=O)Nc3cccc(C(=O)OCC)c3)N=C2C)c1"
  test-target: "P388"
  Rate of inhibition [%]: 46.3
- molecule: "CC1=NN(C(=O)Nc2cccc(C(F)(F)F)c2)C(C)=NN1C(=O)Nc1cccc(C(F)(F)F)c1"
  test-target: "P388"
  Rate of inhibition [%]: 73
- molecule: "COc1ccccc1NC(=O)N1N=C(C)N(C(=O)Nc2ccccc2OC)N=C1C"
  test-target: "P388"
  Rate of inhibition [%]: 59.4
- molecule: "CC1=NN(C(=O)Oc2ccccc2)C(C)N=N1 (stereo not drawn)"
  test-target: "P388"
  Rate of inhibition [%]: 85.3
- molecule: "CCCC1=NN(C(=O)OCC)C(CCC)N=N1 (stereo not drawn)"
  test-target: "P388"
  Rate of inhibition [%]: 35.4
- molecule: "CC1=NN(C(=O)Nc2cccc([N+](=O)[O-])c2)C(C)=NN1C(=O)Nc1cccc([N+](=O)[O-])c1"
  test-target: "P388"
  Rate of inhibition [%]: 69.8
- molecule: "CCCC1NN(C(C)=O)C(CCC)NN1C(C)=O (stereo not drawn)"
  test-target: "P388"
  Rate of inhibition [%]: 38.5
- molecule: "CC1=NN(C(=O)Nc2ccccc2C)C(C)=NN1C(=O)Nc1ccccc1C"
  test-target: "P388"
  Rate of inhibition [%]: 82.8
- molecule: "CCCCCCCCCCCCC/C=C/[C@@H](O)[C@H](CO)NC(C)=O"
  test-target: "P388"
  Rate of inhibition [%]: 73.4
